Assay: Uninfected host cell cytotoxicity counter screen
Type: cell-based
Conditions: human; Table 2; uninfected cells, 24 hours; read-out: Uninfected HeLa-ACE2 CC50
This section presents molecules with their documented CC50 at 24 h values.
Observable: CC50 at 24 h

INSERT INTO measurements (molecule, observable, value) VALUES
  ('Cc1cncc(C(=O)N2CC3CC(C2)N3C(c2ccccc2)c2ccccc2)c1', 'CC50 at 24 h', '> 39.8 µM'),
  ('Cc1cnc(F)c(C(=O)N2CC3CCC(C2)N3C(c2ccccc2)c2ccccc2)c1', 'CC50 at 24 h', '> 39.8 µM'),
  ('CC(=O)Nc1cncc(C(=O)N2CC3CCC(C2)N3C(c2ccccc2)c2ccccc2)c1', 'CC50 at 24 h', '> 39.8 µM'),
  ('CNC(=O)c1cccc(C(c2ccccc2)N2C3CCC2CN(C(=O)c2cncc(C)c2)C3)c1 (centres unmarked)', 'CC50 at 24 h', '> 39.8 µM'),
  ('O=C(c1cccnc1)N1C2CCC1CN(C(c1ccccc1)c1ccccc1)C2', 'CC50 at 24 h', '> 39.8 µM'),
  ('Cc1cncc(C(=O)N2CC3CCC(C2)N3C(c2ccccc2)c2ccccc2)n1', 'CC50 at 24 h', '> 39.8 µM'),
  ('O=C(c1cncc2cc[nH]c12)N1CC2CCC(C1)N2C(c1ccccc1)c1ccccc1', 'CC50 at 24 h', '21.5 µM'),
  ('Cc1cncc(C(=O)N2CC3CCC(C2)N3C(c2ccccc2)c2ccccc2)c1', 'CC50 at 24 h', '> 39.8 µM'),
  ('O=C(c1cncc2nc[nH]c12)N1CC2CCC(C1)N2C(c1ccccc1)c1ccccc1', 'CC50 at 24 h', '> 39.8 µM'),
  ('CC(=O)Nc1cccc(C(c2ccccc2)N2C3CCC2CN(C(=O)c2cncc(C)c2)C3)c1 (centres unmarked)', 'CC50 at 24 h', '> 39.8 µM'),
  ('Cc1cncc(C(=O)N2CC3CCC(C2)N3C(c2cccc(F)c2)c2cccc(F)c2)c1', 'CC50 at 24 h', '26.5 µM');

* * *

This section presents compounds with their documented pIC50 values.
Molecular target: UniProt P0DTD1
Assay: biochemical
Settings: Table 3, select example compounds against mpro; read-out: Enzyme IC50
pIC50: −log10 of the molar value.
Observable: pIC50

INSERT INTO assay_data (compound, system_under_test, observable, value) VALUES
  ('O=C(c1cncc2cn[nH]c12)N1CCC(=C2c3ccccc3CS(=O)(=O)c3ccccc32)CC1 [NZ-821]', 'UniProt P0DTD1', 'pIC50', 7.36),
  ('O=C(c1cncc2cc[nH]c12)N1CCN(C(c2cccc(F)c2)c2cccc(F)c2)CC1 [MKP-1371]', 'UniProt P0DTD1', 'pIC50', 7.89),
  ('O=C(c1cncc2[nH]ccc12)N1CCN(C2c3ccccc3CS(=O)(=O)c3ccccc32)CC1 (stereo not drawn) [NZ-809]', 'UniProt P0DTD1', 'pIC50', 7.82),
  ('Cc1cncc(C(=O)N2CCC(=C3c4ccccc4CS(=O)(=O)c4ccccc43)CC2)c1 [NZ-801]', 'UniProt P0DTD1', 'pIC50', 7.92),
  ('Cc1cncc(C(=O)N2CCN(C(c3cccnc3)c3cccc(F)c3)CC2)c1 (stereo not drawn) [MKP-1290]', 'UniProt P0DTD1', 'pIC50', 7.02),
  ('O=C1Nc2ccccc2C(N2CCN(C(=O)c3cncc4cc[nH]c34)CC2)c2ccccc21 (stereo not drawn) [NZ-815]', 'UniProt P0DTD1', 'pIC50', 7.52),
  ('O=C(c1cncc2cn[nH]c12)N1CCN(C2c3ccccc3CS(=O)(=O)c3ccccc32)CC1 (stereo not drawn) [NZ-822]', 'UniProt P0DTD1', 'pIC50', 7.27),
  ('O=C(c1cncc2cc[nH]c12)N1CCC(=C2c3ccccc3CS(=O)(=O)c3ccccc32)CC1 [NZ-804]', 'UniProt P0DTD1', 'pIC50', 8.05),
  ('O=C(c1cncc2cc[nH]c12)N1CCC(=C(c2cccc(F)c2)c2cccc(F)c2)CC1 [MKP-1355]', 'UniProt P0DTD1', 'pIC50', 7.92),
  ('CS(=O)(=O)c1ccccc1C(c1cccc(F)c1)N1CCN(C(=O)c2cncc3cc[nH]c23)CC1 (stereo not drawn) [NZ-816]', 'UniProt P0DTD1', 'pIC50', 7.77),
  ('O=C(c1cncc2cc[nH]c12)N1CCN(C2c3ccccc3CS(=O)(=O)c3ccccc32)CC1 (stereo not drawn) [NZ-808]', 'UniProt P0DTD1', 'pIC50', 8.00),
  ('O=C(c1cncc2[nH]ccc12)N1CCC(=C2c3ccccc3CS(=O)(=O)c3ccccc32)CC1 [NZ-805]', 'UniProt P0DTD1', 'pIC50', 7.85);
